Where these numbers come from: patent US8318724B2

- subject.of.test: MRP2 (Homo sapiens)
- Sequence (Q92887 whole entry, species assumed): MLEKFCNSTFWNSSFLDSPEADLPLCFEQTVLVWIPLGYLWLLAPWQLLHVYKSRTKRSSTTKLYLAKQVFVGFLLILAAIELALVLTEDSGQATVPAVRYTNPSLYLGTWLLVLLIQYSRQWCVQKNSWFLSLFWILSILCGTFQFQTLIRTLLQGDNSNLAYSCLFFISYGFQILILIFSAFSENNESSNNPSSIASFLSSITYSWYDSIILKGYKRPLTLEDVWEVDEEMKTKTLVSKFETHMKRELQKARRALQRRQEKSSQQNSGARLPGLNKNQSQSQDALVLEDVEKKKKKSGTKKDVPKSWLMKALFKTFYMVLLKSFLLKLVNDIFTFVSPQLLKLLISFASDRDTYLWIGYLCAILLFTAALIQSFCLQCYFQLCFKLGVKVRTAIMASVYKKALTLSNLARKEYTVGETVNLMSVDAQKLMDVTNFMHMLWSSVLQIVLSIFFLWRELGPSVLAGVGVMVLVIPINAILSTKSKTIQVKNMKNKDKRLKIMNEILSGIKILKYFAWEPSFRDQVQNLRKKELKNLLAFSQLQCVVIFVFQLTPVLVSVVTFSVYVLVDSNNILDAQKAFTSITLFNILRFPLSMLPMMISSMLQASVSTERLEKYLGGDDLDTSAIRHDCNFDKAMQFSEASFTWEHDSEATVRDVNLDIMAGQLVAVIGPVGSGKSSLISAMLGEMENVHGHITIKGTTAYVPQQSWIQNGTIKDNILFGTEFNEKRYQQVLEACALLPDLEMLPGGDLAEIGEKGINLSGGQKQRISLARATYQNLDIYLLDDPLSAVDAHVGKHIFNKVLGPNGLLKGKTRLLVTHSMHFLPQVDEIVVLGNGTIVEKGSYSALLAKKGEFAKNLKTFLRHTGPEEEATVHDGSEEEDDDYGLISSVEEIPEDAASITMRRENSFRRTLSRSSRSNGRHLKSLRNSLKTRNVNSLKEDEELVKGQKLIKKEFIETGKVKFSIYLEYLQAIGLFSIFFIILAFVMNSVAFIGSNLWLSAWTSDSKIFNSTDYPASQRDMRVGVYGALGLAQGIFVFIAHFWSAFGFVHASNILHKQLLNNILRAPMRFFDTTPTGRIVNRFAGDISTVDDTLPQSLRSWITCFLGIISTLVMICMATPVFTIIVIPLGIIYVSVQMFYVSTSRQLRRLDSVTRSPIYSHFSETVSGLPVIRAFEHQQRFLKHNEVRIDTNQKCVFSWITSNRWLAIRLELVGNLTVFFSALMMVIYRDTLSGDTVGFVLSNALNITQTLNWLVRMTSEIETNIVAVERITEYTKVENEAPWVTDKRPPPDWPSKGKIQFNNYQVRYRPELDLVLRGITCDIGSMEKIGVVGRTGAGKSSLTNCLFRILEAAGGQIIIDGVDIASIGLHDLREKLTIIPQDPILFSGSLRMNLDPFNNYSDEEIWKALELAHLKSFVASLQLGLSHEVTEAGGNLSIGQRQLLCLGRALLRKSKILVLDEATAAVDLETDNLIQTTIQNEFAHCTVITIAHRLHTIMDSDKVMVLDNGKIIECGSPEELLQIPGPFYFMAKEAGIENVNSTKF
- test.details: Sensitization to doxorubicin of cells expressing multidrug transporter MRP2
- Format: cell-based
- details: ratio of LD50
// boundary case: folds of sensitization of doxorubicin, cells expressing MRP2 equal to 3 folds maps to No; strictly smaller maps to Yes

* Cc1nnc(SCC(=O)N/N=C/c2cccc3cccnc23)n1-c1ccccc1 [Compound 17A08] | Yes
* CC(Sc1nnc(-c2ccco2)n1-c1ccccc1)C(=O)NC(c1ccccc1)c1ccccc1 (stereo not shown) [Compound 4G05] | Yes
* O=C(NCCN1CCOCC1)c1cnn2c(-c3ccccc3)cc(-c3ccccc3)nc12 [Compound 4E11] | No
* C=CCSc1nnc2n(-c3ccccc3)c(=O)c3c4c(sc3n12)CCC4 [Compound 9C06] | No
* O=C(NCCCN1CCOCC1)c1cnn2c(-c3ccccc3)cc(-c3ccccc3)nc12 [Compound 4H10] | No
* c1ccc(-c2cn3c4ccccc4nc3n2CCN2CCCCC2)cc1 [Compound 14C08] | Yes
* CCN(CC)CCCNC(=O)c1cnn2c(C(F)(F)F)cc(-c3ccc(C)cc3)nc12 [Compound 4E10] | No

----------
- subject.of.test: MRP1 (Homo sapiens, UniProt P33527)
- Construct: MCF7/VP breast cancer cells (24), which have amplified and overexpressed MRP1, but negligible Pgp expression; endogenous in cells; host or cells: MCF7/VP (MCF7/VP clone 14) breast cancer cells
- Sequence (P33527 whole entry): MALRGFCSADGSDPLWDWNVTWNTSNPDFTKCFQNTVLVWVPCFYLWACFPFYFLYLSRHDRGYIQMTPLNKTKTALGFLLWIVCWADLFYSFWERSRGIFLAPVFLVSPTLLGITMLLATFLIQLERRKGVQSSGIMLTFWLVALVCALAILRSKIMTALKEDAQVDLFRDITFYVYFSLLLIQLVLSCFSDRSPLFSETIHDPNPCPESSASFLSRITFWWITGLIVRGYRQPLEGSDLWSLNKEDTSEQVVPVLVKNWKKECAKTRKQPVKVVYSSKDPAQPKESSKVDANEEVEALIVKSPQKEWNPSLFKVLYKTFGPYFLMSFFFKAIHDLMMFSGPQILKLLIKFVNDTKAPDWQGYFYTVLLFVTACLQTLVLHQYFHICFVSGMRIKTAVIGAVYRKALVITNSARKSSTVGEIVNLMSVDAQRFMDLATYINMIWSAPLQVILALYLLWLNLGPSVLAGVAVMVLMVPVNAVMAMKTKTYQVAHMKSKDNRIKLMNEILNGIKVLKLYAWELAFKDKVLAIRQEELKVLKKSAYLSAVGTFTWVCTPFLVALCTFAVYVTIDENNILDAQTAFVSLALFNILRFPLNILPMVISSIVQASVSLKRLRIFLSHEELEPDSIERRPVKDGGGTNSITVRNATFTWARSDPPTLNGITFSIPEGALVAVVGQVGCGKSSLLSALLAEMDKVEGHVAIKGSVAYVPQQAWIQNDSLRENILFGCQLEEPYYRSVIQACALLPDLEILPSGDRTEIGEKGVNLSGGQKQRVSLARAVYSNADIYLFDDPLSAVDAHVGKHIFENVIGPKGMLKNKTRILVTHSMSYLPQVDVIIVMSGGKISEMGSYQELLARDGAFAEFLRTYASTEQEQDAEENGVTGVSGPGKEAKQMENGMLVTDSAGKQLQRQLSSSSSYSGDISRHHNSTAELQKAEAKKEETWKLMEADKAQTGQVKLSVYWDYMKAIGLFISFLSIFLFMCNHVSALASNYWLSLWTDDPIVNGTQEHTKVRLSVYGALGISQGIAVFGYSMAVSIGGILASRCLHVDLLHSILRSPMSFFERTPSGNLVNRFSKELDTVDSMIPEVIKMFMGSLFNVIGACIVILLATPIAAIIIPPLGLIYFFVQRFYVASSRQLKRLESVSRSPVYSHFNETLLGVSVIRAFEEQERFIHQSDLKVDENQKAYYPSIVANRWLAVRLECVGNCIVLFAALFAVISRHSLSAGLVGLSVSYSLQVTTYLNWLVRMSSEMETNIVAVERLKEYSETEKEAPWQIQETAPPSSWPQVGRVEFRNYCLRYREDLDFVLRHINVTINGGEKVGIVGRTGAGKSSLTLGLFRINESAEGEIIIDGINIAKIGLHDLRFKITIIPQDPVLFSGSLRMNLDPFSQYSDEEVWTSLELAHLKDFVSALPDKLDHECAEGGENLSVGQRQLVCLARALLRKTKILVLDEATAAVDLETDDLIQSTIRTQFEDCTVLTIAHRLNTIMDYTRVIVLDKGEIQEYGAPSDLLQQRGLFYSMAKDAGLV
- test.details: Sensitization to doxorubicin of cells expressing multidrug transporter MRP1
- Format: cell-based
- details: ratio of LD50
A collection of molecules and their measured folds of sensitization of doxorubicin, cells expressing MRP1
property: folds of sensitization of doxorubicin, cells expressing MRP1 (folds)

* c1ccc(-c2cn3c4ccccc4nc3n2CCN2CCCCC2)cc1 [Compound 14C08] | 3.0
* O=C(NCCCN1CCOCC1)c1cnn2c(-c3ccccc3)cc(-c3ccccc3)nc12 [Compound 4H10] | 4.1
* O=C(NCCN1CCOCC1)c1cnn2c(-c3ccccc3)cc(-c3ccccc3)nc12 [Compound 4E11] | 3.9
* CC(Sc1nnc(-c2ccco2)n1-c1ccccc1)C(=O)NC(c1ccccc1)c1ccccc1 (stereo not shown) [Compound 4G05] | 1.75
* Cc1nnc(SCC(=O)N/N=C/c2cccc3cccnc23)n1-c1ccccc1 [Compound 17A08] | 1.1
* CCN(CC)CCCNC(=O)c1cnn2c(C(F)(F)F)cc(-c3ccc(C)cc3)nc12 [Compound 4E10] | 3.7
* C=CCSc1nnc2n(-c3ccccc3)c(=O)c3c4c(sc3n12)CCC4 [Compound 9C06] | 3.3

----------
So I've got folds of sensitization of doxorubicin, cells expressing MDR1 readings for MDR1 (Homo sapiens, UniProt P08183), take a look.
property: folds of sensitization of doxorubicin, cells expressing MDR1

- O=C(NCCN1CCOCC1)c1cnn2c(-c3ccccc3)cc(-c3ccccc3)nc12: 4.2 folds
- C=CCSc1nnc2n(-c3ccccc3)c(=O)c3c4c(sc3n12)CCC4: 3.7 folds
- Cc1nnc(SCC(=O)N/N=C/c2cccc3cccnc23)n1-c1ccccc1: 2 folds
- O=C(NCCCN1CCOCC1)c1cnn2c(-c3ccccc3)cc(-c3ccccc3)nc12: 4.5 folds
